- experimental target: PDGFRα (Homo sapiens (Human), UniProt P16234)
- Sequence (P16234 24-1089): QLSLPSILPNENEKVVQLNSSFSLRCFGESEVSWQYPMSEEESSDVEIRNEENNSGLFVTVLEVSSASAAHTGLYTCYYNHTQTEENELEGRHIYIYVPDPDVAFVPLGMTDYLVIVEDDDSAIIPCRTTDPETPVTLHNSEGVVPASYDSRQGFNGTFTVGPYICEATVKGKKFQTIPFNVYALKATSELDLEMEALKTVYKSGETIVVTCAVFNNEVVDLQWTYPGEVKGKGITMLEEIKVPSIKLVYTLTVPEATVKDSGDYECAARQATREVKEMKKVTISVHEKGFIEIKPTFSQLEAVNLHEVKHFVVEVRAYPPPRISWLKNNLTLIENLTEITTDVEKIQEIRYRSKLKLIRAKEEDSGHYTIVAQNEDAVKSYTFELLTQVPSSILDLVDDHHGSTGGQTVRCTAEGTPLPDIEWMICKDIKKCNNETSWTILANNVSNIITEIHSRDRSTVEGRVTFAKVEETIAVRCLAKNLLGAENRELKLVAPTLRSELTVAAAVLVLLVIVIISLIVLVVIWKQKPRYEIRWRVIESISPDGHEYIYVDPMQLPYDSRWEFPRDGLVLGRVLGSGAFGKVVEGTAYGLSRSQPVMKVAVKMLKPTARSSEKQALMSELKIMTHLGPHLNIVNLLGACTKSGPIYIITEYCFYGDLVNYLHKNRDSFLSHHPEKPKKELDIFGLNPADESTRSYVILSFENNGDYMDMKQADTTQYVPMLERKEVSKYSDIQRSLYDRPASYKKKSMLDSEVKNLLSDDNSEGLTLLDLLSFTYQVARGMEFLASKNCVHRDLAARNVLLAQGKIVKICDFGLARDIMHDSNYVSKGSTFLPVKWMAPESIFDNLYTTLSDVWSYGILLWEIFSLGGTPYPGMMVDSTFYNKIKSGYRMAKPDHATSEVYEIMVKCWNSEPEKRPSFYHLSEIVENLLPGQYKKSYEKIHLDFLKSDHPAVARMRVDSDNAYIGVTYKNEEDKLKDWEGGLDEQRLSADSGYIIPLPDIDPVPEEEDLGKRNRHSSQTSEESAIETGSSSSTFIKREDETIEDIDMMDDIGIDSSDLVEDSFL
- assay: Kinase inhibitory activity, isotopic labeling (γ-33P-ATP)
- Type: biochemical
- conditions used: compound at 10 μM
Recorded The kinase activity inhibitory rate (%) by the tested compounds at 10 μM PDGFRα for the following compounds
Value expressed in %; do not type the unit.

Solved entries:
CC(C)n1c(Nc2ccccc2)nc2cnc(Nc3ccc(C(=O)NC4CCN(C)CC4)cc3)nc21 | 88
CC(C)n1c(Nc2ccccc2)nc2cnc(Nc3ccc(C(=O)NN4CCN(C)CC4)cc3)nc21 | 43

Sample CC(C)n1c(Nc2ccc(C(=O)Nc3cccc(F)c3)cc2)nc2cnc(Nc3ccc(N4CCN(C)CC4)cc3)nc21 — what was its The kinase activity inhibitory rate (%) by the tested compounds at 10 μM PDGFRα? 43

Recorded The kinase activity inhibitory rate (%) by the tested compounds at 10 μM PDGFRα for CC(C)n1c(Nc2ccc(C(F)(F)F)cc2)nc2cnc(Nc3ccc(N4CCN(C)CC4)cc3)nc21 , please? 68

# The kinase activity inhibitory rate (%) by the tested compounds at 10 μM PDGFRα lookup, item CN1CCN(c2ccc(Nc3ncc4nc(Nc5ccccc5)[nH]c4n3)cc2)CC1 21

Dear colleague, I am looking for the recorded The kinase activity inhibitory rate (%) by the tested compounds at 10 μM PDGFRα of the following compound: COc1ccc(Nc2nc3cnc(Nc4ccc(N5CCN(C)CC5)cc4)nc3n2C(C)C)cc1 60

Which The kinase activity inhibitory rate (%) by the tested compounds at 10 μM PDGFRα value is on record for CC(C)n1c(Nc2ccc(OCc3cccc(F)c3)c(Cl)c2)nc2cnc(Nc3ccc(N4CCN(C)CC4)cc3)nc21 ? 34

Given the entry CC(C)n1c(Nc2ccc(F)c(Cl)c2)nc2cnc(Nc3ccc(N4CCN(C)CC4)cc3)nc21 , report its measured The kinase activity inhibitory rate (%) by the tested compounds at 10 μM PDGFRα. 90

Returns the measured The kinase activity inhibitory rate (%) by the tested compounds at 10 μM PDGFRα for the input compound. Input: CC(C)n1c(Nc2ccc(F)c(Cl)c2)nc2cnc(Nc3ccc(C(=O)NN4CCN(C)CC4)cc3)nc21 84

Which The kinase activity inhibitory rate (%) by the tested compounds at 10 μM PDGFRα value belongs to CN1CCN(c2ccc(Nc3ncc4nc(Nc5ccccc5)n(C5CCCC5)c4n3)cc2)CC1 ? 95

Which The kinase activity inhibitory rate (%) by the tested compounds at 10 μM PDGFRα value is on record for CN1CCN(c2ccc(Nc3ncc4nc(Nc5ccccc5)n(C)c4n3)cc2)CC1 ? 29

Please give the measured The kinase activity inhibitory rate (%) by the tested compounds at 10 μM PDGFRα for this compound: CC(C)n1c(Nc2ccccc2)nc2cnc(Nc3ccc(N4CCN(C)CC4)cc3)nc21 87

Need The kinase activity inhibitory rate (%) by the tested compounds at 10 μM PDGFRα of C=CC(=O)Nc1cccc(Nc2ncc3nc(Nc4ccccc4)n(C(C)C)c3n2)c1 , thanks. 55

Fill blank: measured The kinase activity inhibitory rate (%) by the tested compounds at 10 μM PDGFRα of the compound CC(C)n1c(Nc2ccc(Br)cc2)nc2cnc(Nc3ccc(N4CCN(C)CC4)cc3)nc21 is ____. 94

What value of The kinase activity inhibitory rate (%) by the tested compounds at 10 μM PDGFRα has been recorded for this entry: CC(C)n1c(Nc2ccc(NC(=O)Nc3ccc(F)c(Cl)c3)cc2)nc2cnc(Nc3ccc(N4CCN(C)CC4)cc3)nc21 100

====

- experimental target: EGFR L858R/T790M double mutant type (Homo sapiens (Human), UniProt P00533, L858R/T790M)
- Sequence (P00533 25-1210 T790M/L858R): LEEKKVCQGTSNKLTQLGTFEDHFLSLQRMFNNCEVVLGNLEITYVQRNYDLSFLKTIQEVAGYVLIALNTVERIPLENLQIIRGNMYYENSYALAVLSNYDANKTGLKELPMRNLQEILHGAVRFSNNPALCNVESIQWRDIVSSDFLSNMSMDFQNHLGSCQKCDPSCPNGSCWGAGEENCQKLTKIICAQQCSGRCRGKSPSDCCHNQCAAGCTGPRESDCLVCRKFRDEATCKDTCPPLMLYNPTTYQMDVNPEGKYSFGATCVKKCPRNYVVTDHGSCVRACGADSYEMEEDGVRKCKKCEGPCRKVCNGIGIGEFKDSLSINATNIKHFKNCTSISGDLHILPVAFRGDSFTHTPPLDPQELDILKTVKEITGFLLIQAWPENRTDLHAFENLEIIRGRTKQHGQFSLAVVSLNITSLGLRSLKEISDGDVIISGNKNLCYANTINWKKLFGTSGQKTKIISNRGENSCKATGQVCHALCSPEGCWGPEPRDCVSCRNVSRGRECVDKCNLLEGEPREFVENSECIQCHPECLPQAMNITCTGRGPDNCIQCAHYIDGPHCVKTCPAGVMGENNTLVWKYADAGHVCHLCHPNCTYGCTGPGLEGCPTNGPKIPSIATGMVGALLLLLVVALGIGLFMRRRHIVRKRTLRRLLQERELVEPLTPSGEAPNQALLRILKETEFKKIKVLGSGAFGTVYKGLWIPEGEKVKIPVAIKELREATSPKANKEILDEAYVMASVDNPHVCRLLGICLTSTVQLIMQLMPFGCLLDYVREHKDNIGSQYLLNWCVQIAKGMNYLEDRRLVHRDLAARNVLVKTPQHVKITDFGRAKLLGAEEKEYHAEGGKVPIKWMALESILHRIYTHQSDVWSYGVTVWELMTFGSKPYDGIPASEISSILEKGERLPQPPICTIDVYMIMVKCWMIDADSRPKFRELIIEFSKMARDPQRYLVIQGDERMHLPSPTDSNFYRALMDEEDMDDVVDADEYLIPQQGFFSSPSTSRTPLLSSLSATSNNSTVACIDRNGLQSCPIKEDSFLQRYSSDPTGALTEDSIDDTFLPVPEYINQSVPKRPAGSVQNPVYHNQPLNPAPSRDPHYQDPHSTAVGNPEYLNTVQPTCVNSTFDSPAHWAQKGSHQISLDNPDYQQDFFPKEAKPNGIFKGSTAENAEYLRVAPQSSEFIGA
- assay: Kinase inhibitory activity, isotopic labeling (γ-33P-ATP)
- Assay type: biochemical
- conditions used: ATP 45 μM (Km)
// reported IC50 per item
# unit: µM | format: bare number

CN1CCN(c2ccc(Nc3ncc4nc(Nc5ccccc5)n(C5CC5)c4n3)cc2)CC1 [Compounds 8-23] | 0.041
CC(C)n1c(Nc2ccc(NC(=O)Nc3ccc(F)c(Cl)c3)cc2)nc2cnc(Nc3ccc(N4CCN(C)CC4)cc3)nc21 [Compounds 8-21] | 0.005
CC(C)n1c(Nc2cccnc2)nc2cnc(Nc3ccc(N4CCN(C)CC4)cc3)nc21 [Compounds 8-29] | 0.064
CC(C)n1c(Nc2ccccc2)nc2cnc(Nc3ccc(C(=O)NC4CCN(C)CC4)cc3)nc21 [Compounds 8-9] | 0.006
CC(C)n1c(Nc2ccc(C(=O)Nc3cccc(F)c3)cc2)nc2cnc(Nc3ccc(N4CCN(C)CC4)cc3)nc21 [Compounds 8-22] | 0.087
CC(C)n1c(NC2CCCCC2)nc2cnc(Nc3ccc(N4CCN(C)CC4)cc3)nc21 [Compounds 8-30] | 0.228

# next molecule below
Missing value: IC50, EGFR L858R/T790M double mutant type (Homo sapiens (Human), UniProt P00533, L858R/T790M), entry CC(C)n1c(Nc2ccccc2)nc2cnc(Nc3ccc(N4CCN(C)CC4)cc3)nc21 [Compounds 8-10] . Fill in? 0.046
